target: tau (0N4R) aggregates, sucrose gradient fractions (Homo sapiens); format: binding; details: Kd, 40% sucrose tau fraction
endpoint_name: Kd

| compound | tested_system | experimental_value |
| --- | --- | --- |
| O=C(O)Cc1cc(-c2ccc(C(=O)O)s2)sc1-c1ccc(-c2sc(-c3ccc(C(=O)O)s3)cc2CC(=O)O)s1 [pFTAA] | tau (0N4R) aggregates, sucrose gradient fractions (Homo sapiens) | 1290 nM |

---

molecular target: tau (0N4R) aggregates, sucrose gradient fractions (Homo sapiens, UniProt P10636); type: binding; conditions: Kd, 10% sucrose tau fraction
Sequence (P10636 1-383 isoform P10636-6): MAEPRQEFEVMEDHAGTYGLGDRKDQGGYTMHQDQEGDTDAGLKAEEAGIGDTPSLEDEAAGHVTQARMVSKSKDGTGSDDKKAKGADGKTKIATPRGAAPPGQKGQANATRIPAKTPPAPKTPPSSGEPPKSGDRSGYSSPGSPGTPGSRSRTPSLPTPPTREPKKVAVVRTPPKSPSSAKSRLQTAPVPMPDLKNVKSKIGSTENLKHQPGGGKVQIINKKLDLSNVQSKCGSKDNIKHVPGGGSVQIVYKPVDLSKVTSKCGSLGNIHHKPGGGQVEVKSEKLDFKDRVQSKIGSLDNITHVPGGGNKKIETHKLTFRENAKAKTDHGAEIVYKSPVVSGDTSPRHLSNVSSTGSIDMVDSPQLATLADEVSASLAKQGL
pKd: −log10 of the molar value.
endpoint_name: pKd

| compound | tested_system | experimental_value |
| --- | --- | --- |
| O=C(O)Cc1cc(-c2ccc(C(=O)O)s2)sc1-c1ccc(-c2sc(-c3ccc(C(=O)O)s3)cc2CC(=O)O)s1 [pFTAA] | tau (0N4R) aggregates, sucrose gradient fractions (Homo sapiens, UniProt P10636) | 4.53 |

---

biological target: Aβ40 aggregates (Homo sapiens); format: binding; details: Kd, Aβ40 aggregates at 24 h
Sequence (P05067 672-711 limits assumed): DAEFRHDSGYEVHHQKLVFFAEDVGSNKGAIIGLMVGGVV
pKd: −log10 of the molar value.

| smiles_notation | pKd |
| --- | --- |
| O=C(O)Cc1cc(-c2ccc(C(=O)O)s2)sc1-c1ccc(-c2sc(-c3ccc(C(=O)O)s3)cc2CC(=O)O)s1 | 6.19 |

---

target: tau (0N4R) aggregates, sucrose gradient fractions (Homo sapiens, UniProt P10636); assay type: binding; conditions: Kd, 50% sucrose tau fraction
endpoint_name: Kd (nM)

| compound | tested_system | endpoint_name | experimental_value |
| --- | --- | --- | --- |
| O=C(O)Cc1cc(-c2ccc(C(=O)O)s2)sc1-c1ccc(-c2sc(-c3ccc(C(=O)O)s3)cc2CC(=O)O)s1 [pFTAA] | tau (0N4R) aggregates, sucrose gradient fractions (Homo sapiens, UniProt P10636) | Kd | 200 |

Hello, the source for this data is paper PMC8159431, in case you need it.
